Items are presented alongside their recorded pEC50.
Target: AMPK
Assay: AMPK activation, enzyme-linked immunosorbent assay
Assay type: biochemical
Conditions: Table 2, AMPK activation, ELISA
pEC50: −log10 of the molar value.

Input line: Provide pEC50, tested on AMPK, for O=C(NC1CCN(Cc2ccc(N3CCOCC3)cc2)CC1)c1ccc(OC2CCN(c3ccc(C(F)(F)F)cc3)CC2)cn1 [Compound 40] .
Output line: > 7.00

Input line: Provide pEC50, tested on AMPK, for N#Cc1ccc(CN2CCC(NC(=O)c3ccnc(OC4CCN(c5ccc(C(F)(F)F)cc5)CC4)c3)CC2)cc1 [Compound 21] .
Output line: 6.30 to 7.00

Input line: Provide pEC50, tested on AMPK, for N#Cc1ccc(CN2CC(NC(=O)c3ccc(OC4CCN(c5ccc(C(F)(F)F)cc5)CC4)cn3)C2)cc1 [Compound 41] .
Output line: 6.30 to 7.00

Input line: Provide pEC50, tested on AMPK, for O=C(NC1CCN(CCc2ccccc2)CC1)c1ccc(OC2CCN(c3ccc(C(F)(F)F)cc3)CC2)cn1 [Compound 36] .
Output line: 6.00 to 6.30

More entries:
Input line: Provide pEC50, tested on AMPK, for O=C(NC1CCN(Cc2cccnc2)CC1)c1cncc(OC2CCN(c3ccc(C(F)(F)F)cc3)CC2)c1 [Compound 18] .
Output line: > 7.00

Input line: Provide pEC50, tested on AMPK, for O=C(N[C@@H]1CCN(Cc2ccncc2)C1)c1ccc(OC2CCN(c3ccc(C(F)(F)F)cc3)CC2)cn1 [Compound 25] .
Output line: 6.30 to 7.00

Input line: Provide pEC50, tested on AMPK, for O=C(NC1CN(Cc2ccncc2)C1)c1ccc(OC2CCN(c3ccc(C(F)(F)F)cc3)CC2)cn1 [Compound 42] .
Output line: 5.30 to 6.00

Input line: Provide pEC50, tested on AMPK, for O=C(NCCCNCc1ccncc1)c1ccc(OC2CCN(c3ccc(C(F)(F)F)cc3)CC2)cn1 [Compound 50] .
Output line: 5.30 to 6.00

* * *

Target: AMPK
Experiment: AMPK activation, enzyme-linked immunosorbent assay
Assay type: biochemical
Settings: Table 4, AMPK activation, ELISA
measured_quantity: EC50

Recorded EC50, per entry:
Input line: Answer with the recorded EC50 for the compound listed here: `CC(C)(C)OC(=O)N1CCC(NC(=O)c2cc3ccc(OC4CCN(c5ccc(OC(F)(F)F)cc5)CC4)cc3o2)CC1`
Output line: 0.1 to 0.5 µM

Input line: Answer with the recorded EC50 for the compound listed here: `O=C(NC1CCN(Cc2ccc(C(F)(F)F)cc2)CC1)c1cc2ccc(OC3CCN(c4ccc(C(F)(F)F)cc4)CC3)cc2o1`
Output line: < 0.1 µM

Input line: Answer with the recorded EC50 for the compound listed here: `O=C(NC1CCN(S(=O)(=O)c2cccnc2)CC1)c1cc2ccc(OC3CCN(c4ccc(C(F)(F)F)cc4)CC3)cc2o1`
Output line: 0.1 to 0.5 µM

Input line: Answer with the recorded EC50 for the compound listed here: `N#Cc1ccccc1CN1CCC(NC(=O)c2cc3ccc(OC4CCN(c5ccc(C(F)(F)F)cc5)CC4)cc3o2)CC1`
Output line: < 0.1 µM

Input line: Answer with the recorded EC50 for the compound listed here: `O=C(NC1CCN(Cc2cccnc2)CC1)c1cc2ccc(OC3CCN(c4ccc(OC(F)(F)F)cc4)CC3)cc2o1`
Output line: < 0.1 µM

More entries:
Input line: Answer with the recorded EC50 for the compound listed here: `Cc1c(C(=O)NC2CCN(C(=O)OC(C)(C)C)CC2)oc2cc(OC3CCN(c4ccc(C(F)(F)F)cc4)CC3)ccc12`
Output line: 0.1 to 0.5 µM

Input line: Answer with the recorded EC50 for the compound listed here: `N#Cc1ccc(CN2CCC(NC(=O)c3cc4ccc(OC5CCN(c6ccc(OC(F)(F)F)cc6)CC5)cc4o3)CC2)cc1`
Output line: < 0.1 µM

* * *

Biological target: AMPK
Assay: AMPK activation, enzyme-linked immunosorbent assay
Type: biochemical
Conditions: Table 6, AMPK activation, ELISA
measured_quantity: EC50

Input line: Provide EC50, tested on AMPK, for FC(F)(F)c1ccc(N2CCC(Oc3ccc4c(c3)CCC4NC3CCNCC3)CC2)cc1 (stereo not shown) [Compound 157] .
Output line: > 100000 nM

Input line: Provide EC50, tested on AMPK, for Fc1ccc(CN2CCC(NC3CCc4cc(OC5CCN(c6ccc(C(F)(F)F)cc6)CC5)ccc43)CC2)cc1 (stereo not shown) [Compound 159] .
Output line: 500 to 1000 nM

Input line: Provide EC50, tested on AMPK, for FC(F)(F)c1ccc(N2CCC(Oc3ccc4c(c3)CCC4NC3CCN(Cc4ccncc4)CC3)CC2)cc1 (stereo not shown) [Compound 158] .
Output line: 500 to 1000 nM

Read the next record carefully.
Input line: Provide EC50, tested on AMPK, for N#Cc1ccc(CN2CCC(NC3CCc4cc(OC5CCN(c6ccc(C(F)(F)F)cc6)CC5)ccc43)CC2)cc1 (stereo not shown) [Compound 160] .
Output line: < 500 nM

* * *

Biological target: AMPK
Test: AMPK activation, enzyme-linked immunosorbent assay
Type: biochemical
Settings: Table 4, AMPK activation, ELISA
pEC50: −log10 of the molar value. Where a name gives a salt, the structure may show the parent alone.
Items are presented alongside their recorded pEC50.

Recorded pEC50, per entry:
Input line: Answer with the recorded pEC50 for the compound listed here: N#Cc1ccc(N2CCC(Oc3ccc4oc(C(=O)NC5CCN(Cc6ccccc6)CC5)cc4c3)CC2)cc1 [Compound 71, formate salt]
Output line: > 7.00

Input line: Answer with the recorded pEC50 for the compound listed here: `CN(C(=O)c1cc2cc(OC3CCN(c4ccc(C(F)(F)F)cc4)CC3)ccc2o1)C1CCN(Cc2ccc(C(F)(F)F)cc2)CC1`
Output line: > 7.00

Input line: Answer with the recorded pEC50 for the compound listed here: `O=C(N[C@@H]1CCN(S(=O)(=O)c2cccnc2)C1)c1cc2cc(OC3CCN(c4ccc(C(F)(F)F)cc4)CC3)ccc2o1`
Output line: 5.00 to 6.00

Input line: Answer with the recorded pEC50 for the compound listed here: `CC(C)(C)OC(=O)N1CCC(NC(=O)c2cc3ccc(OC4CCN(c5ccc(C(F)(F)F)cc5)CC4)cc3o2)CC1`
Output line: 6.30 to 7.00

Input line: Answer with the recorded pEC50 for the compound listed here: `O=C(N[C@@H]1CCN(Cc2ccncc2)C1)c1cc2cc(OC3CCN(c4ccc(C(F)(F)F)cc4)CC3)ccc2o1`
Output line: 6.30 to 7.00

More entries:
Input line: Answer with the recorded pEC50 for the compound listed here: `O=C(N[C@H]1CCN(Cc2ccncc2)C1)c1cc2cc(OC3CCN(Cc4ccc(Cl)cc4)CC3)ccc2o1`
Output line: 5.00 to 6.00

Input line: Answer with the recorded pEC50 for the compound listed here: `O=C(NC1CCN(Cc2ccccc2)CC1)c1cc2cc(OC3CCN(Cc4cccc(C(F)(F)F)c4)CC3)ccc2o1`
Output line: 6.00 to 6.30

* * *

Target: AMPK
Test: AMPK activation, enzyme-linked immunosorbent assay
Format: biochemical
Conditions: Table 2, AMPK activation, ELISA
measured_quantity: EC50

Recorded EC50, per entry:
Input line: Provide EC50, tested on AMPK, for `O=C(NC1CCN(Cc2c[nH]cn2)CC1)c1ccc(OC2CCN(c3ccc(C(F)(F)F)cc3)CC2)cn1` .
Output line: 1 to 5 µM

Input line: Provide EC50, tested on AMPK, for `CC(C)(C)OC(=O)NCCCNC(=O)c1ccc(OC2CCN(c3ccc(C(F)(F)F)cc3)CC2)cn1` .
Output line: < 0.1 µM

Read the next record carefully.
Input line: Provide EC50, tested on AMPK, for `N#Cc1ccc(CN2CC[C@@H](NC(=O)c3ccc(OC4CCN(c5ccc(C(F)(F)F)cc5)CC4)cn3)C2)cc1` .
Output line: 0.5 to 1 µM

* * *

Molecular target: AMPK
Assay: AMPK activation, enzyme-linked immunosorbent assay
Assay type: biochemical
Details: Table 5, AMPK activation, ELISA
Items are presented alongside their recorded EC50.

Recorded EC50, per entry:
Input line: Answer with the recorded EC50 for the compound listed here: `N#Cc1ccc(CN2CCC(NC(=O)c3sc4cc(OC5CCN(c6ccc(C(F)(F)F)cc6)CC5)ccc4c3Cl)CC2)cc1`
Output line: < 100 nM

Input line: Answer with the recorded EC50 for the compound listed here: `O=C(NC1CCN(Cc2ccncc2)CC1)c1cc2cc(OC3CCN(c4ccc(OC(F)(F)F)cc4)CC3)ccc2s1`
Output line: < 100 nM

Input line: Answer with the recorded EC50 for the compound listed here: `O=C(NC1CCN(Cc2ccncc2)CC1)c1sc2cc(OC3CCN(c4ccc(C(F)(F)F)cc4)CC3)ccc2c1Cl`
Output line: < 100 nM

Input line: Answer with the recorded EC50 for the compound listed here: `N#Cc1ccccc1CN1CCC(NC(=O)c2cc3ccc(OC4CCN(c5ccc(C(F)(F)F)cc5)CC4)cc3s2)CC1`
Output line: 100 to 500 nM

Read the next record carefully.
Input line: Answer with the recorded EC50 for the compound listed here: `CC(C)(C)OC(=O)N1CCC(NC(=O)c2sc3cc(OC4CCN(c5ccc(C(F)(F)F)cc5)CC4)ccc3c2Cl)CC1`
Output line: 1000 to 50000 nM
